Just for reference, ChEMBL document CHEMBL1201862 is where these values come from.

test system: UACC-257; experiment: NCI tumour cell line growth inhibition, 48 h
Calls of active or inactive are those of the source. No stated cut-off is given here; in the data, active = GI50 up to about 1.1 µM and inactive = higher.
recorded_metric: GI50

[
  {
    "compound": "CCOC(=O)c1ccc(N2C(=O)Cc3ccccc3C2=O)cc1",
    "recorded_result": "> 100 µM (inactive)"
  },
  {
    "compound": "COCc1nc2c(OC)c(-c3nc4ccc(N5CCN(C)CC5)nc4[nH]3)cc(OC)c2[nH]1",
    "recorded_result": "24 µM (inactive)"
  },
  {
    "compound": "CN1Cc2c(nc(-c3ccc(Br)cc3)c[n+]2[O-])N(C)C1",
    "recorded_result": "> 100 µM (inactive)"
  },
  {
    "compound": "O=C1CC(c2ccc(Cl)cc2)=Nc2ccccc2N1",
    "recorded_result": "80.7 µM (inactive)"
  },
  {
    "compound": "CN1CC[C@]2(c3cccc(O)c3)CC(=O)/C(=C/c3ccccc3)[C@@H]1C2.[O-][Cl+3]([O-])([O-])O",
    "recorded_result": "3.24 µM (inactive)"
  },
  {
    "compound": "C/C(=N\\N=C(/[SeH])N1CC2CCC(CC2)C1)c1ccccn1",
    "recorded_result": "0.0112 µM (active)"
  },
  {
    "compound": "COCC(O)Cn1ccnc1[N+](=O)[O-] (stereo not given) [MISONIDAZOLE]",
    "recorded_result": "> 100 µM (inactive)"
  },
  {
    "compound": "Cc1occc1C(=S)Nc1ccc(Cl)c(C(=O)OC(C)C2CC2)c1 (stereo not given)",
    "recorded_result": "30.3 µM (inactive)"
  },
  {
    "compound": "Cn1c(=O)nc2n(-c3cccc(F)c3)c3ccccc3nc-2c1=O",
    "recorded_result": "12.8 µM (inactive)"
  },
  {
    "compound": "Cc1cc(C)[n+](CCOc2ccc(/C(=C(/Cl)c3ccccc3)c3ccccc3)cc2)c(C)c1.[O-][Cl+3]([O-])([O-])[O-]",
    "recorded_result": "0.692 µM (active)"
  }
]

* * *

GI50 for assorted molecules
tested on: NCI/ADR-RES; test: NCI tumour cell line growth inhibition, 48 h
Active and inactive are the calls of the source. Rule as the data show it: active = GI50 up to about 1.1 µM and inactive = higher.

[
  {
    "molecule": "C[C@]12CCC(O)CC1=CC[C@@H]1[C@@H]2CC[C@]2(C)C(=O)[C@H](n3ccnc3)C[C@@H]12 (some centres not stated)",
    "GI50": "39.8 µM (inactive)"
  },
  {
    "molecule": "CO[C@]12CC(=O)C3(C(C[C@H]4CC5CC=C6C[C@@H](OC(C)=O)CC[C@]6(OC(C)=O)C5C[C@@]43C)C1)C1C[C@H]3[C@@H]4CC=C5C[C@@H](OC(C)=O)CC[C@]5(OC(C)=O)[C@H]4CC[C@]3(C)C12 (some centres not stated)",
    "GI50": "14 µM (inactive)"
  },
  {
    "molecule": "Cc1cc(O)nc(NN2C(Cl)C(=O)C2c2ccccc2O)n1 (configuration not stated)",
    "GI50": "1.54 µM (inactive)"
  },
  {
    "molecule": "CSc1nc(SC)c2c(C)c(Br)[nH]c2n1",
    "GI50": "> 100 µM (inactive)"
  },
  {
    "molecule": "C[N+](C)(CCCCCC[N+](C)(C)CCCN1C(=O)c2cccc3cccc(c23)C1=O)CCCN1C(=O)c2cccc3cccc(c23)C1=O",
    "GI50": "> 100 µM (inactive)"
  },
  {
    "molecule": "CC1=NN(c2nc(N)nc(CCl)n2)C(C)(C)C1",
    "GI50": "14.4 µM (inactive)"
  },
  {
    "molecule": "CN1C(=O)C(O)CC1c1cccc(F)c1 (configuration not stated)",
    "GI50": "> 100 µM (inactive)"
  },
  {
    "molecule": "Cc1c(O)oc2ccccc2c1=O",
    "GI50": "> 100 µM (inactive)"
  },
  {
    "molecule": "COc1ccc(O[C@H](CO)C[C@@H]2COC(C)(C)O2)cc1",
    "GI50": "> 100 µM (inactive)"
  },
  {
    "molecule": "C=C1[C@@H](OC(C)=O)/C=C/C2C3C(=O)[C@@](C)(OC(C)=O)[C@H]([C@H](OC(C)=O)[C@]4(O)[C@@H](C)C(=O)O[C@H]4[C@H]1Cl)[C@@]23C (some centres not stated)",
    "GI50": "> 100 µM (inactive)"
  },
  {
    "molecule": "C=C1C(=O)O[C@H]2[C@H]3O[C@@H](C[C@@H]12)[C@@]1(C)CC[C@H](O1)C(C)=CCC[C@H]3C",
    "GI50": "1.72 µM (inactive)"
  },
  {
    "molecule": "OCC(O)C(Cl)CCl (configuration not stated)",
    "GI50": "> 100 µM (inactive)"
  },
  {
    "molecule": "COc1ccc(Nc2nc3ccccc3nc2-c2cccs2)cc1OC",
    "GI50": "> 10 µM (inactive)"
  },
  {
    "molecule": "Clc1ccc(-c2nn3c(CCCCCCCCc4nnc5sc(-c6ccc(Cl)cc6)nn45)nnc3s2)cc1",
    "GI50": "21 µM (inactive)"
  },
  {
    "molecule": "CCOc1ccccc1/N=N/C1C(=O)N(C(=O)CC(=O)Nc2ccccc2Cl)N=C1C (configuration not stated)",
    "GI50": "89.3 µM (inactive)"
  },
  {
    "molecule": "Cc1cc(Cl)cc2c1NC(=O)C2(O)CC(=O)c1ccco1 (configuration not stated)",
    "GI50": "59.7 µM (inactive)"
  },
  {
    "molecule": "CC(C)C/N=C(\\N)N=C(N)N",
    "GI50": "> 100 µM (inactive)"
  },
  {
    "molecule": "Cc1sc2nc(-c3ccc([N+](=O)[O-])cc3)c(/C=N/N=C(N)N)n2c1C",
    "GI50": "2.76 µM (inactive)"
  },
  {
    "molecule": "Cn1c(=O)n2c(=O)n(C)c(=O)n2c1=O",
    "GI50": "> 100 µM (inactive)"
  },
  {
    "molecule": "C[C@H]1[C@H](C)N1CC(O)Cn1ccnc1[N+](=O)[O-] (some centres not stated)",
    "GI50": "> 100 µM (inactive)"
  },
  {
    "molecule": "O=C(Nc1sccc1S(=O)(=O)c1ccc(Cl)cc1)c1ccc(Cl)cc1Cl",
    "GI50": "> 100 µM (inactive)"
  },
  {
    "molecule": "CC1(C)OCC(C2OC(N3O[C@H](CI)C[C@@H]3c3ccccc3)C3OC(C)(C)OC23)O1 (some centres not stated)",
    "GI50": "> 100 µM (inactive)"
  },
  {
    "molecule": "O=C(Nc1ccc(Cl)c(Cl)c1)N1N=C2c3ccccc3CCC2C1c1ccc(Cl)cc1 (configuration not stated)",
    "GI50": "> 100 µM (inactive)"
  },
  {
    "molecule": "CC(C)(C(=O)NN)c1ccccc1",
    "GI50": "> 100 µM (inactive)"
  },
  {
    "molecule": "O=C(O)C1(Cc2ccccc2)Cc2ccccc2C1",
    "GI50": "> 100 µM (inactive)"
  },
  {
    "molecule": "COCc1nc2c(OC)c(-c3nc4ccc(N5CCN(C)CC5)nc4[nH]3)cc(OC)c2[nH]1",
    "GI50": "> 100 µM (inactive)"
  },
  {
    "molecule": "Clc1ccc2c(NC3CCC(N4CCCCC4)CC3)ccnc2c1 (configuration not stated)",
    "GI50": "34 µM (inactive)"
  },
  {
    "molecule": "C[C@@H](NC(=O)Nc1cccc(C(=O)Nc2cc(C(C)(C)C)ccc2C(=O)O)n1)c1ccccc1",
    "GI50": "> 100 µM (inactive)"
  },
  {
    "molecule": "O=C(O)c1ccc(Oc2nc3ccccc3s2)cc1",
    "GI50": "> 100 µM (inactive)"
  },
  {
    "molecule": "O=C1C=C(NCCc2ccc(O)cc2)C(=O)C=C1NCCc1ccc(O)cc1",
    "GI50": "> 100 µM (inactive)"
  },
  {
    "molecule": "CN(C)CCCNC(=O)c1cc(NS(=O)(=O)c2ccc3c(c2)C(=O)c2ccccc2C3=O)cn1C",
    "GI50": "> 100 µM (inactive)"
  },
  {
    "molecule": "Cc1nn(C(=O)c2ccccc2O)c2c1C(c1ccco1)SC(=N)N2 (configuration not stated)",
    "GI50": "3.22 µM (inactive)"
  },
  {
    "molecule": "COc1ccccc1Nc1nc(N)nc(N)c1N",
    "GI50": "> 100 µM (inactive)"
  },
  {
    "molecule": "c1ccc(/C(=N/Nc2ccccn2)c2ncccn2)cc1",
    "GI50": "1.43 µM (inactive)"
  },
  {
    "molecule": "Nc1ncnc2c1cnn2Cc1cn(COCC(O)CO)nn1 (configuration not stated)",
    "GI50": "> 100 µM (inactive)"
  },
  {
    "molecule": "COc1cc(/C=C2\\NC(=O)N(/C=C3\\C(=O)Oc4ccccc4C3=O)C2=O)ccc1O",
    "GI50": "> 100 µM (inactive)"
  },
  {
    "molecule": "O=c1c2ccccc2nc(-c2ccc(Cl)cc2)n1O",
    "GI50": "19.6 µM (inactive)"
  },
  {
    "molecule": "Nc1nc(O)nc2c1ncn2C1OC(CO)C(O)C1O (configuration not stated)",
    "GI50": "22.6 µM (inactive)"
  },
  {
    "molecule": "O=C(NC1CCN(Cc2ccccc2)CC1)c1ccccc1I",
    "GI50": "25.7 µM (inactive)"
  },
  {
    "molecule": "COc1cc(C2SCC(=O)N2c2ccc(Cl)c(Cl)c2)cc(OC)c1OC (configuration not stated)",
    "GI50": "37.2 µM (inactive)"
  },
  {
    "molecule": "COc1ccccc1C1ON=C(c2ccc([N+](=O)[O-])cc2)N1C12CC3CC(CC(C3)C1)C2 (configuration not stated)",
    "GI50": "> 100 µM (inactive)"
  },
  {
    "molecule": "CC/C(=N/O)c1ccc(Br)s1",
    "GI50": "> 100 µM (inactive)"
  }
]
